- Tgt: T1, human CD20 (human, UniProt P11836 1-297)
- T1 sequence: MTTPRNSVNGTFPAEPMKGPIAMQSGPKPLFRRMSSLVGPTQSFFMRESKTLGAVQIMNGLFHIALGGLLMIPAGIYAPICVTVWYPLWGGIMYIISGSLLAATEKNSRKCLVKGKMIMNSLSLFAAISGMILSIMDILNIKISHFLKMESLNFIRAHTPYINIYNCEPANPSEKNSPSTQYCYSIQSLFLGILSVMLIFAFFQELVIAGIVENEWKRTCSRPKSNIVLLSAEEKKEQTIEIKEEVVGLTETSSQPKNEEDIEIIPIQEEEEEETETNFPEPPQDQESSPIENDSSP
- Test Summary: cell-based or functional assay
Value Kind: % Cytotoxicity (CDC, Daudi), 0 hour (%)
Answer format: numeric, % implied, no suffix.

Find the recorded % Cytotoxicity (CDC, Daudi), 0 hour belonging to rituximab (RITUXAN, IDEC Pharmaceuticals Corp.) (antibody, V domains shown) VH: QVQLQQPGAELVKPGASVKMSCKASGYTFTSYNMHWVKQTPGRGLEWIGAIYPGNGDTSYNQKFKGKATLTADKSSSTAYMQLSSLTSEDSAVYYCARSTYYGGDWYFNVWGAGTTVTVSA VL: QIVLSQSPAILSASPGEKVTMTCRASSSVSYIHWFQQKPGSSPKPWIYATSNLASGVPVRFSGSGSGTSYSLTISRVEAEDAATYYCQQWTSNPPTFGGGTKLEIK and report it.
98.5

Next:
Need % Cytotoxicity (CDC, Daudi), 0 hour, item 9D4-7 (antibody, V domains shown, Fully human IgG, constant region not specified; also called 9D4-7N) VH: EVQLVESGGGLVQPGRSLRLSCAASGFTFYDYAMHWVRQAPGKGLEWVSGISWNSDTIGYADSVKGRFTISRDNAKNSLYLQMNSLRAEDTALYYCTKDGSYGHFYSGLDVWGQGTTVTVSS VL: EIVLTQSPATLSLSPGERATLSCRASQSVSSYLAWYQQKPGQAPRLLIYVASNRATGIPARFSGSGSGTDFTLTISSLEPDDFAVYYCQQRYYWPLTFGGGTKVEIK
99.4
